Test: VP16 selectivity assay for inhibitors of ROR gamma transcriptional activity
Conditions: Drosophila Schneider Gal4-VP16 UAS-luciferase reporter, 20 h; series mostly up to 92.2 µM
Records with an inconclusive call do not appear. Activity calls are given as the source filed them. Calls come from the whole dose curve; as a rule, active = well fitted inhibition curve with a large enough effect; inconclusive = small, poorly fitted or top-dose-only effect, or effect the other way; inactive = flat fitted curve, though single readings scatter.
Classes used: class 1 for active, class 0 for inactive

* CCn1cc(C(=O)O)c(=O)c2cnc(N3CCN(C(=S)NC(=O)c4ccccc4)CC3)nc21 | class 1
* CC(C)(C)c1ccc(S(=O)(=O)Nc2ccc(C(O)(C(F)(F)F)C(F)(F)F)cc2)cc1 | class 1
* Cc1cc(C)nc(-n2nc(C)cc2NC(=O)CNC(C)c2ccccc2)n1 (stereo not given) | class 1
* COc1cc(O)c(C(CC(=O)N2CCCC(C)C2)c2ccccc2OC)c(OC)c1 (stereo not given) | class 0
* C#CCOc1cc(OC)cc(OC)c1C(CC(=O)N1CCCC(C)C1)c1ccc2c(c1)OCO2 (stereo not given) | class 1
* COc1cc(O)c(C(CC(=O)N2CCCC(C)C2)c2ccccc2)c(OC)c1 (stereo not given) | class 0
* O=C(CCCOc1ccccc1)Nc1nc2ccccc2[nH]1 | class 1
* COc1ccc(-c2nnc(-c3ccc(N(C)C)cc3)o2)cc1 | class 0
* CC(C)(C(=O)Nc1nccs1)C(c1ccccc1)c1ccc(O)cc1 (stereo not given) | class 1
* CC1CCCN(C(=O)CC(c2ccc3c(c2)OCO3)c2ccc(O)cc2O)C1 (stereo not given) | class 0

====

Assay: VP16 selectivity assay for inhibitors of ROR gamma transcriptional activity
Conditions: Drosophila Schneider Gal4-VP16 UAS-luciferase reporter, 20 h; series mostly up to 92.2 µM
Results filed as inconclusive are left out. Active and inactive are the calls of the source. The call rests on the fitted dose curve; in most records, active means well fitted inhibition curve with a large enough effect; inconclusive means small, poorly fitted or top-dose-only effect, or effect the other way; inactive means flat fitted curve, though single readings scatter.
Classes used: 1 for active, 0 for inactive

- COCC1CCCCN1C(=O)c1cc(COc2ccc3ncccc3c2)on1 (configuration not stated): 1
- COc1ccc(C(=O)Nc2cc(-c3ccc(C)cc3)no2)cc1: 0
- CC(C)[C@H](NC(=O)C1CCN(C(=O)[C@@H]2CCCN2C(=O)OC(C)(C)C)CC1)C(=O)NCc1ccc(F)cc1: 0
- COc1cc(O)c(C(CC(=O)N2CCCC(C)C2)c2ccc(-c3ccccc3)cc2)c(OC)c1 (configuration not stated): 0
- COc1cc(O)c(C(CC(=O)N2CCC(Cc3ccccc3)CC2)c2ccc(OC)c(OC)c2)c(OC)c1 (configuration not stated): 0
- COc1cc(O)c(C(CC(=O)N2CCC(C)CC2)c2ccc(C)cc2)c(OC)c1 (configuration not stated): 0
- COc1cc(OC)c(C(CC(=O)N2CCCC(C)C2)c2ccc3c(c2)OCO3)c(OCc2ccccc2)c1 (configuration not stated): 1
- CC(C)(C)c1ccc([S+](=O)([O-])Nc2ccccc2C(O)(C(F)(F)F)C(F)(F)F)cc1: 1
- COc1cc(O)c(C(CC(=O)Nc2ccc(C)cc2)c2ccc3c(c2)OCO3)c(OC)c1 (configuration not stated): 1
- COc1cc(O)c(C(CC(=O)N2CCCCC2)c2ccc(C)cc2)c(OC)c1 (configuration not stated): 0
- COc1cc(O)c(C(CC(=O)N2CCCC2)c2ccc3c(c2)OCO3)c(OC)c1 (configuration not stated): 0
- CCN(CC)c1ccc(/C=N/n2c(-c3ccccc3Br)n[nH]c2=S)cc1: 1
- COc1cc(O)c(C(CC(=O)N2CCCC(C)C2)c2ccc(C(C)C)cc2)c(OC)c1 (configuration not stated): 1
- COc1cc(O)c(C(CC(=O)N2CCCC(C(=O)c3ccccc3)C2)c2ccc3c(c2)OCO3)c(OC)c1 (configuration not stated): 0
- COc1cc(O)c(C(CC(=O)N2CCc3ccccc32)c2ccc3c(c2)OCO3)c(OC)c1 (configuration not stated): 0
- CC1=C(\C=C/C(C)=C/C=C\C(C)=C\C(=O)O)C(C)(C)CCC1: 1
- COc1cc(O)c(C(CC(=O)N2CCC(c3ccccc3)CC2)c2ccc(C)cc2)c(OC)c1 (configuration not stated): 0
- COc1cc(O)c(C(CC(=O)N2CCCC(C)C2)c2ccc(OC)c(OC)c2)c(OC)c1 (configuration not stated): 0
- CCC(=O)C1CCCN(C(=O)CC(c2ccc3c(c2)OCO3)c2c(O)cc(OC)cc2OC)C1 (configuration not stated): 0
- COc1cc(OC)c(C(CC(=O)N2CC(C)CC(C)C2)c2ccc3c(c2)OCO3)c(OC)c1 (configuration not stated): 1
- Cc1cc(C)n(-c2nc(SCC(=O)O)c3c4c(sc3n2)CCCC4)n1: 1
- COc1cc(O)c(C(CC(=O)N2CCC(C)CC2)c2ccc(OC)c(OC)c2)c(OC)c1 (configuration not stated): 0
- O=C(CCCN1C(=O)/C(=C/c2ccccc2Cl)SC1=S)Nc1cccnc1: 1
- COc1cc(O)c(C(CC(=O)N2CCCC(C)C2)c2ccc3c(c2)OCO3)c(OC)c1 (configuration not stated): 0
- COc1cc(O)c(C(CC(=O)N2CC(C)NC(C)C2)c2ccc3c(c2)OCO3)c(OC)c1 (configuration not stated): 0
- COC(=O)Cn1c(CN2CCc3ccccc3C2)nc2c1c(=O)n(C)c(=O)n2C: 1
- COc1ccc(-c2c[n+]3c(n2-c2ccc(C)cc2)CCCCC3)cc1: 1
- COc1cc(O)c(C(CC(=O)N2CC(C)OC(C)C2)c2ccc3c(c2)OCO3)c(OC)c1 (configuration not stated): 0
- COc1cc(O)c(C(CC(=O)N2CCC[C@H](C)C2)c2ccc3c(c2)OCO3)c(OC)c1 (some centres not stated): 0
- CCOc1ncccc1C(=O)OCC(=O)Nc1ccc(-c2nc3ccc(C)cc3s2)cc1: 1
- COc1cc(O)c(C(CC(=O)N2CCCC(C(=O)N3CCCCC3)C2)c2ccc3c(c2)OCO3)c(OC)c1 (configuration not stated): 0
- COc1cc(O)c(C(CC(=O)N2CC(C)CC(C)C2)c2ccc(O)cc2)c(OC)c1 (configuration not stated): 0
- COc1cc(O)c(C(CC(=O)N2CCCC(CN3CCCCC3)C2)c2ccc3c(c2)OCO3)c(OC)c1 (configuration not stated): 0
- Cc1ccc(-c2cn(-c3ccccc3)c3[n+]2CCCS3)cc1: 1
- C[C@H]1O[C@@H](O[C@H]2[C@@H](O)C[C@@H](O[C@H]3[C@@H](O)C[C@H](O[C@H]4CC[C@@]5(C)[C@H](CC[C@@H]6[C@@H]5CC[C@]5(C)[C@@H](C7=CC(=O)OC7)CC[C@]65O)C4)O[C@@H]3C)O[C@@H]2C)C[C@H](O)[C@@H]1O: 0
- COc1ccccc1C(CC(=O)N1C[C@H](C)C[C@H](C)C1)c1ccccc1 (some centres not stated): 1
- COc1cc(OC)c2c(c1)OC(=O)CC2c1ccc2c(c1)OCO2 (configuration not stated): 0

====

Assay: VP16 selectivity assay for inhibitors of ROR gamma transcriptional activity
Settings: Drosophila Schneider Gal4-VP16 UAS-luciferase reporter, 20 h; series mostly up to 92.2 µM
Records with an inconclusive call do not appear. The source made the active and inactive calls. Calls follow the shape of the dose curve; as a rule, active = well fitted inhibition curve with a large enough effect; inconclusive = small, poorly fitted or top-dose-only effect, or effect the other way; inactive = flat fitted curve, though single readings scatter.
Classes used: active, inactive

* COC(=O)c1ccc(OCC(=O)c2ccc(O)cc2O)cc1 | active
* CCNC(=O)CCc1nc(-c2ccc(C(C)(C)C)cc2)no1 | active
* COc1cc(O)c(C(CC(=O)N2CCCC(COc3ccc(F)cc3)C2)c2ccc3c(c2)OCO3)c(OC)c1 (stereo not drawn) | inactive

====

Assay: VP16 selectivity assay for inhibitors of ROR gamma transcriptional activity
Settings: Drosophila Schneider Gal4-VP16 UAS-luciferase reporter, 20 h; series mostly up to 92.2 µM
Results filed as inconclusive are left out. Active and inactive are the calls of the source. Calls follow the shape of the dose curve; as a rule, active = well fitted inhibition curve with a large enough effect; inconclusive = small, poorly fitted or top-dose-only effect, or effect the other way; inactive = flat fitted curve, though single readings scatter.
Classes used: active, inactive

- COc1cc(OC)c(C(CC(=O)N2CCCC(C)C2)c2ccc3c(c2)OCO3)c(OC)c1 (centres undefined): active
- O=S(=O)(c1ccc(NC(=S)N/N=C/c2ccc(Oc3ccccc3)cc2)cc1)N1CCOCC1: active
- C=C1Nc2c(-c3ccc(F)cc3)cnn2C(N)=C1c1ccccc1: active
- CC1CCCN(C(=O)CC(c2ccc3c(c2)OCO3)c2c(O)cccc2Cl)C1 (centres undefined): active
- COc1cc(O)c(C(CC(=O)N2CCCC(C)C2)c2ccc(C)cc2)c(OC)c1 (centres undefined): active
- COc1cc(O)c(C(CC(=O)N(Cc2ccccc2)Cc2ccccc2)c2ccc3c(c2)OCO3)c(OC)c1 (centres undefined): inactive
- COc1cc(O)c([C@H](CC(=O)N2CC(C)CC(C)C2)c2ccc3c(c2)OCO3)c(OC)c1 (some centres undefined): inactive
- COc1ccccc1CNC(=O)[C@@H](NC(=O)C1CCN(C(=O)[C@@H]2CCCN2C(=O)OC(C)(C)C)CC1)C(C)C: inactive
- Cc1ccc(C)c(/C=N/n2cc(-c3ccccc3)[nH]c2=S)c1: active
